# System tested: Protein deacetylase HDAC6 (Homo sapiens, UniProt Q9UBN7)
# Sequence (Q9UBN7 whole entry): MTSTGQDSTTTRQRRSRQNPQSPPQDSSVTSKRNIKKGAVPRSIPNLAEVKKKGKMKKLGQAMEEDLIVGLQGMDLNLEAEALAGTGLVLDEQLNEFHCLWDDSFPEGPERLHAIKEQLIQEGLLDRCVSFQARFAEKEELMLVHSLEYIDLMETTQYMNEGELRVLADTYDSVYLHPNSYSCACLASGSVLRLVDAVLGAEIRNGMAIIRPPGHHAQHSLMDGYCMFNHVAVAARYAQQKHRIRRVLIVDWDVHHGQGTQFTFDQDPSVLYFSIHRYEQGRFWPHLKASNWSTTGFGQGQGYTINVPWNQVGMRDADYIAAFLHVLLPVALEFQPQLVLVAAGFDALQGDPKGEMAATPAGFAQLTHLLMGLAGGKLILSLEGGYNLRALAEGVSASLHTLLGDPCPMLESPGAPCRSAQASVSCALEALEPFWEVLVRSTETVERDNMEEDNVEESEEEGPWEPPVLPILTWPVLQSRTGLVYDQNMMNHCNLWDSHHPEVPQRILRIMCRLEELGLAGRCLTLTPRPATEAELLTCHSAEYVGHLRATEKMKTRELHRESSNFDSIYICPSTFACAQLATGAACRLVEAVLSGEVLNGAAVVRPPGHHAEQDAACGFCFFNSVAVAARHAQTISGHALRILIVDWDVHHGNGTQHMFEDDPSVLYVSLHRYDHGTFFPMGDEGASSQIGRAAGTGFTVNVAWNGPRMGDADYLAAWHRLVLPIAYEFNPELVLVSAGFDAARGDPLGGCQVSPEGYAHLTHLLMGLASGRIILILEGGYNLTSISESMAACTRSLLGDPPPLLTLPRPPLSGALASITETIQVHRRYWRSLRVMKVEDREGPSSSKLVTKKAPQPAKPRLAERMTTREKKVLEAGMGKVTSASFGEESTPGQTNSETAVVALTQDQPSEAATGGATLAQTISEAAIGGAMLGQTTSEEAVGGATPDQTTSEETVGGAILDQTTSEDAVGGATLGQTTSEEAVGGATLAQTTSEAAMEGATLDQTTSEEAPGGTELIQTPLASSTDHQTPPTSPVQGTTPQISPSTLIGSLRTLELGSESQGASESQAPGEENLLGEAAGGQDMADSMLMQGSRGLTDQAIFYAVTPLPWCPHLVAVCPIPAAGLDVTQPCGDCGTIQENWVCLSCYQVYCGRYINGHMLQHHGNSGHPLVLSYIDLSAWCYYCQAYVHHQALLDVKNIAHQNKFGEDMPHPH
Property: IC50 (nM)
Form entry: value (nM) — number only.

These solved cases illustrate the format of a correct answer.
CN(Cc1ccccc1)C(=O)c1cc(C(=O)C(F)(F)F)cs1 : 640
C[C@@H](NC(=O)c1ccc(C(=O)C(F)(F)F)s1)c1ccccc1 : 360
CN(Cc1ccccc1)S(=O)(=O)c1ccc(C(=O)C(F)(F)F)s1 : 730
O=C(c1ccc(C(=O)N2CCc3ccccc32)s1)C(F)F : 15
O=C(c1ccc(C(=O)C(F)(F)F)[nH]1)N1CCc2ccccc21 : 880

// next item, IC50 requested
Reported IC50 ( CCNC(=O)c1ccc(C(=O)C(F)(F)F)s1 ) = 310
